Molecular target: GK- W257 (W99R/W167F) (Homo sapiens, UniProt P35557, W167F/W99R)
Sequence (P35557 1-465 W99R/W167F): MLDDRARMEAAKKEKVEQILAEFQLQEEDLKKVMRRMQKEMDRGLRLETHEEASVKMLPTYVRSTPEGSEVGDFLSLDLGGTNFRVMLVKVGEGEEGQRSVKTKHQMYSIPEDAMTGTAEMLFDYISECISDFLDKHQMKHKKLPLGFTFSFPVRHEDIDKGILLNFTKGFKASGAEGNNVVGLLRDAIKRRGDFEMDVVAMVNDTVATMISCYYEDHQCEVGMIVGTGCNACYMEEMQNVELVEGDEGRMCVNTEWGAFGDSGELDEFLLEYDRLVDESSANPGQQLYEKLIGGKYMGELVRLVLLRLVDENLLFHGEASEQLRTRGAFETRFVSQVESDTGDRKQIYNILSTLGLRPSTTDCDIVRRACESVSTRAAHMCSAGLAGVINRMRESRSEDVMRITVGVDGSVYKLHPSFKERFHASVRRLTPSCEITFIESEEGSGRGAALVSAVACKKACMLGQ
Test: D-glucose binding by tryptophan fluorescence titration
Conditions: W-257, no GKA, no glycerol
MEASURE_NAME: Kd (mM)
State just the number; it will be interpreted in mM.

Record OC[C@H]1OC(O)[C@H](O)[C@@H](O)[C@@H]1O (stereo partly shown) : what is its Kd with GK- W257 (W99R/W167F) (Homo sapiens, UniProt P35557, W167F/W99R)?
11.3
